Measured values drawn from ChEMBL document CHEMBL5131463 for this set.

# TESTED_TARGET: Spike glycoprotein (Severe acute respiratory syndrome coronavirus 2, UniProt P0DTC2)
# MEASUREMENT_PROTOCOL: Binding affinity to SARS-CoV-2 Spike glycoprotein receptor-binding domain at 1.875 to 50 uM in presence of wallichins C by SPR assay
READOUT: Kd (µM)
Numbers only here, please. The scale is µM.

Recorded Kd of C=C1CC[C@H]2[C@@](C)(CCC[C@]2(C)C(=O)O)[C@@H]1C/C=C(\C)[C@H]1CCc2c(O)c(CC3C(=O)C(C(C)=O)=C(O)C(C)(C)C3O)c(O)c(C(=O)CCC)c2O1 (stereo partly specified) , please. 64.7
